Values compiled from ChEMBL document CHEMBL1123497.

- Organism: Mus musculus
- method.description: Inhibition of acetic acid induced writhing in mice.
- Assay type: functional
reported.endpoint: ED50 (mg/kg)
Record the value in mg/kg, omitting the unit from your answer.

CCCCC(=O)n1c2cc(C(F)(F)F)ccc2c2oc(C(=O)N3CCOCC3)cc21: 34.5
CCCCCCn1c2cc(C(F)(F)F)ccc2c2oc(C(=O)N3CCOCC3)cc21: 7.7
CCOC(=O)n1c2cc(C(F)(F)F)ccc2c2oc(C(=O)N3CCOCC3)cc21: 35.6

Data point: "CC(C)CC(=O)n1c2cc(C(F)(F)F)ccc2c2oc(C(=O)N3CCOCC3)cc21" ; ED50 = 6

Data point: "CC(C)=CCn1c2cc(C(F)(F)F)ccc2c2oc(C(=O)N3CCOCC3)cc21" ; ED50 = 10.1

Data point: "CC(C)C(=O)n1c2cc(C(F)(F)F)ccc2c2oc(C(=O)N3CCOCC3)cc21" ; ED50 = 7.3

Data point: "CCCCCCCn1c2cc(C(F)(F)F)ccc2c2oc(C(=O)N3CCOCC3)cc21" ; ED50 = 17.8

Data point: "CCCCCn1c2cc(C(F)(F)F)ccc2c2oc(C(=O)N3CCOCC3)cc21" ; ED50 = 10.9

====

- Tested on: Rattus norvegicus
- method.description: Antiinflammatory activity by Carrageenan edema assay in rats
- Assay type: functional
- Parameters: concentration or dose not given beside the values; unit not given here
# Inhibition per record follows
Give the figure by itself; no unit, no explanation.

COC(=O)n1c2cc(Cl)ccc2c2oc(C(=O)N3CCOCC3)cc21: 1

Data point: "CC(C)C(=O)n1c2cc(C(F)(F)F)ccc2c2oc(C(=O)N3CCOCC3)cc21" ; Inhibition = 3

Data point: "CCOC(=O)n1c2cc(C(F)(F)F)ccc2c2oc(C(=O)N3CCOCC3)cc21" ; Inhibition = 3

Data point: "CC(C)Cn1c2cc(C(F)(F)F)ccc2c2oc(C(=O)N3CCOCC3)cc21" ; Inhibition = 3

Data point: "CCCCOC(=O)n1c2ccccc2c2oc(C(=O)N3CCOCC3)cc21" ; Inhibition = 1

====

- Test system: Rattus norvegicus
- method.description: Antiinflammatory activity by Carrageenan edema assay in rats
- Format: functional
- Parameters: concentration or dose not given beside the values; unit not given here
reported.endpoint: Inhibition
Give the figure by itself; no unit, no explanation.

CCOC(=O)n1c2cc(O)ccc2c2oc(C(=O)N3CCOCC3)cc21: 1
CCCCCCn1c2cc(C(F)(F)F)ccc2c2oc(C(=O)N3CCOCC3)cc21: 3
CC(C)COC(=O)n1c2ccccc2c2oc(C(=O)N3CCOCC3)cc21: 1
CCCCCCCn1c2cc(C(F)(F)F)ccc2c2oc(C(=O)N3CCOCC3)cc21: 3
CC(C)=CCn1c2cc(C(F)(F)F)ccc2c2oc(C(=O)N3CCOCC3)cc21: 3

Data point: "CCCOC(=O)n1c2ccccc2c2oc(C(=O)N3CCOCC3)cc21" ; Inhibition = 1

Data point: "COC(=O)n1c2cc(C(F)(F)F)ccc2c2oc(C(=O)N3CCOCC3)cc21" ; Inhibition = 1

Data point: "CCOC(=O)n1c2cc(C)ccc2c2oc(C(=O)N3CCOCC3)cc21" ; Inhibition = 3

Data point: "CCCOC(=O)n1c2cc(OC)ccc2c2oc(C(=O)N3CCOCC3)cc21" ; Inhibition = 1

Data point: "CC(C)OC(=O)n1c2ccccc2c2oc(C(=O)N3CCOCC3)cc21" ; Inhibition = 2

Data point: "CC(C)CCn1c2cc(C(F)(F)F)ccc2c2oc(C(=O)N3CCOCC3)cc21" ; Inhibition = 3

Data point: "COC(=O)n1c2cc(F)ccc2c2oc(C(=O)N3CCOCC3)cc21" ; Inhibition = 1

Data point: "CC(C)COC(=O)n1c2cc(Cl)ccc2c2oc(C(=O)N3CCOCC3)cc21" ; Inhibition = 2

Data point: "CCCCCCCCC(=O)n1c2cc(C(F)(F)F)ccc2c2oc(C(=O)N3CCOCC3)cc21" ; Inhibition = 2
